Exercise: state measured TGI for each of the compounds provided.
# Tested on: LOX IMVI melanoma
# testDescription: NCI tumour cell line growth inhibition, 48 h
Peptide text beside a SMILES is read from it. * marks the point of attachment. Boc = CC(C)(C)OC(=O)*

Notebook: COc1cc(C(=O)N/N=C/c2cccc([N+](=O)[O-])c2)cc(OC)c1OC , TGI read as > 100 µM

For record CN1C(=O)C23CC4=CC=CC(O)C4N2C(=O)C1(CO)SS3 (stereo unspecified) the listed TGI is 0.492 µM

TGI measured on CCOc1cccnc1/C=N/NC(N)=S = 14 µM

// COC(=O)C(Cc1ccccc1)NC(=O)CCCNC(=O)OCc1ccccc1 (stereo unspecified) : TGI value = > 100 µM

TGI reading for CCCCCCCCCCCCCCCC(=O)OCC1OC(n2ccc(N)nc2=O)C(O)C1O (stereo unspecified) : > 100 µM

Value of TGI reported for the compound O=C(OCc1nc2ccc(Br)cc2c(=O)n1-c1ccccc1)c1ccccc1O is > 100 µM

Quick note, TGI for C=C(C)[C@]12CC(C)C34OC(/C=C\C=C\CCCCCCCCC)(O[C@@H]1[C@@H]3[C@@H]1O[C@]1(CO)[C@@H](O)[C@]1(O)C(=O)C(C)=C[C@@H]41)O2 (stereo partly specified) landed at 3.88 µM

Sample Cc1nn(C(=O)c2ccccc2O)c2c1C(c1ccc(O)cc1)SC(N)=N2 (stereo unspecified) ; TGI observed: > 10 µM

TGI recorded for this compound, CNC(=O)OCC1=C(COC(=O)NC)CN(c2ccccc2)C1 , is > 100 µM

Per the record, CSCCC(NC(=O)C(CC(C)C)NC(=O)CNC(=O)OC(C)(C)C)C(=O)N(C)C (stereo not drawn) (Boc-Gly-Leu-Met-NMe2; configuration not given here) has TGI of > 100 µM

N#CC(=C=[N-])[n+]1ccc(Cl)cc1 has a reported TGI of 26.2 µM

Measured TGI of COC(=O)c1cc2c3c(c(C(C)=O)c(OC)c2[nH]1)NCC3 : > 50 µM

Summary for this compound, CC1=CC(c2ccccc2)n2c(nc3cc4ccccc4cc32)N1 (stereo unspecified) : TGI is > 100 µM

For record O=C(NO)C(O)C(O)C(O)C(O)CO (stereo unspecified) the listed TGI is > 100 µM

get_value(item= CN1C(=O)[C@@]2(C=CC3(CC2)OCCO3)c2ccccc21 , readout=TGI) returns > 50 µM

Please fill in: TGI reported for O=[N+]([O-])O.[NH-]C1CCCCC1[NH-].[NH-]C1CCCCC1[NH-].[NH-]C1CCCCC1[NH-].[OH-].[OH-].[OH-].[Pt+4].[Pt+4].[Pt+4] (stereo unspecified) = > 85.7 µM

Memo: COc1ccc([C@@]23CCC(=O)C[C@@H]2N(C)CC3)cc1OC , reported TGI: > 100 µM

So, O=c1[nH]c(-c2ccccn2)nc2sc3c(c12)CCCCCC3 ? Its TGI was > 100 µM

Summary for this compound, COc1ccc(-c2c(C(C)=O)c(C)n(C3OC(CO)C(O)C(O)C3O)c(=S)c2C#N)cc1 (stereo unspecified) : TGI is > 100 µM

TGI recorded for this compound, CC(C)CC1c2[nH]c3ccccc3c2C[C@H]2C(=O)NC(COC(C)(C)C)C(=O)N12 (stereo partly specified) , is 34.7 µM

The reported TGI of the compound O=C1/C(=C/c2ccccc2)CN(C(=O)OCC(Cl)(Cl)Cl)C/C1=C\c1ccccc1 was 2.06 µM

###

# Test system: OVCAR-8 ovarian
# testDescription: NCI tumour cell line growth inhibition, 48 h
measuredProperty: TGI

Value of measured TGI for the entry C/C(=N/Nc1ccc([N+](=O)[O-])cc1[N+](=O)[O-])C(CC(C(=O)Nc1ccccc1C)/C(C)=N\Nc1ccc([N+](=O)[O-])cc1[N+](=O)[O-])C(=O)Nc1ccccc1C (centres undefined) : 14 µM

So, O=C(O)CCCc1nc2c(n1-c1ccccc1)C(=O)c1ccccc1C2=O ? Its TGI was > 100 µM

So for Cn1cc(-c2nn3cc(-c4cccs4)nc3s2)c2cc(F)ccc21 , the logged TGI turned out to be > 100 µM

Entry Cc1c(-c2coc(-c3ccc(Cl)cc3)n2)c(=O)n(-c2ccccc2)n1C , TGI reported as > 100 µM

###

Exercise: for every item that follows, state its recorded TGI.
# System: HCC-2998 colon
# testDescription: NCI tumour cell line growth inhibition, 48 h
Give the number; µM is assumed, so skip it.

Data point: Cn1c(COC(=O)NCCN2CCOCC2)nc2c(N3CCOCC3)nc(-c3ccccc3)nc21 ; TGI = 3.41

So, CC(C)=C1CCC(CN2CCCC2)C1=O (centres undefined) ? Its TGI was 34.6

// TGI lookup, molecule = COC(=O)C1=C(O)C(C(=O)OC)[C@@]2(O)[C@@H](C(=O)OC)C(c3ccc(OC(=O)C(CC(C)C)NC(C)=O)cc3)C[C@@H]1[C@@H]2C(=O)OC (some centres undefined) , result: 52

Summary for this molecule, C=CC(C)(C)n1cc(C2=C(O)C(=O)C(c3cn(C(C)(C)C=C)c4ccccc34)=C(OC(C)=O)C2=O)c2ccccc21 : TGI is 2.16

###

# Test system: T-47D breast
# testDescription: NCI tumour cell line growth inhibition, 48 h
Peptide text beside a SMILES is read from it. * marks the point of attachment. Boc = CC(C)(C)OC(=O)*
measuredProperty: TGI

// TGI lookup, molecule = C=C(CCC(C(=O)O)C1CCC2(C)C3=C(CCC12C)C1(C)CCC(O)C(C)(C)C1CC3)C(C)C (stereo not given) , result: > 100 µM

TGI measured on N#Cc1ccc(N2Cc3cc(Cl)ccc3OC3=C2C(=O)N(Cc2ccccc2)C3=O)cc1 = 2.58 µM

The reported TGI of the molecule N#CC1(C#N)C2C=CC(C3CCC=C32)C1(C#N)C#N (stereo not given) was > 8.87 µM

Kindly note the recorded TGI for CCOC(=O)Cc1csc(NC(=O)C(OC(=O)c2ccc(N)cc2)c2ccccc2)n1 (stereo not given) , which is > 100 µM

Note to self: TGI recorded for Cc1cc(S(=O)(=O)NC(=NCC(=O)NN)NN)c(S)cc1Cl was > 10 µM

Value of TGI reported for the molecule COc1cc(C2S/C(=C/c3ccccc3)C(=O)N2c2ccc(Cl)cc2)cc(OC)c1OC (stereo not given) is > 25.6 µM

Briefly, TGI measured for O=C(CN=Cc1cccs1)CSC(c1ccccc1)c1ccccc1 : 84.3 µM

The value of TGI measured for the molecule CC1SC2(CCCCC2)N(NC(=O)c2[nH]c3ccc(F)cc3c2-c2ccccc2)C1=O (stereo not given) turned out to be > 100 µM

Record CN(C)CCNc1nc2ccccc2c2c1C(=O)c1ccccc1-2 . Reported TGI: 4.12 µM

Record summary for CSCCC(NC(=O)C(CC(C)C)NC(=O)CNC(=O)OC(C)(C)C)C(=O)N(C)C (stereo not drawn) (Boc-Gly-Leu-Met-NMe2; configuration not given here) : reported TGI = > 100 µM

molecule CC(C)(C)NCCC(O)c1cc(C(F)(F)F)nc2c(C(F)(F)F)cccc12 (stereo not given) , TGI observed: 30.9 µM

Looking up CCOc1cccnc1/C=N/NC(N)=S , I found its TGI recorded as > 100 µM

Documented TGI of CSc1s[s+]c(SC)c1-c1ccccc1 : > 100 µM

The molecule listed as COc1cc(C2c3cc4c(cc3[C@@H](Nc3cccc(O)c3)C3COC(=O)[C@H]23)OCO4)cc(OC)c1O (stereo not given in full) shows TGI equal to 53.2 µM

So for CNC(=O)OCC1=C(COC(=O)NC)CN(c2ccccc2)C1 , the logged TGI turned out to be > 100 µM

Summary for this molecule, COC1=CC2(C=CC1=O)CCN=c1c(O)c3c(c(O)c12)=NC=N3 (stereo not given) : TGI is > 100 µM

Lookup result for O=C(NCCCCl)c1c(O)c2ccccc2[nH]c1=O ; measured TGI: > 100 µM

Data point: COc1cc(OC)c(/C=C/S(=O)(=O)Cc2ccc(OC)c(NCC(=O)O)c2)c(OC)c1 ; TGI = > 100 µM

The molecule CN(Cc1nc2c(N)nc(N)nc2nc1N)c1ccc(C(=O)NC(CCC(=O)O)C(=O)O)cc1 (stereo not given) showed TGI equal to > 100 µM

So for COc1ccc(C[C@H]2COC(=O)[C@@H]2Cc2cc(OC)c(OC)c(OC)c2)cc1OC , the logged TGI turned out to be > 65.2 µM

Input COc1cc2c(cc1OC)C1Cc3ccccc3CN1CCC2 (stereo not given) . Output TGI: > 100 µM

The molecule identified as Cc1cccc(N2CCN(S(=O)(=O)c3ccc(Cl)cc3)C2=N)c1C registered its TGI at > 100 µM

Summary for this molecule, CCc1nc(N)nc(N)c1-c1ccc([N+](=O)[O-])c(Cl)c1 : TGI is > 100 µM

Measured TGI, C=CCOn1c(C=C)nc2c(C)cccc21 : 7.25 µM

Given item C=C(CC1(CC(=C)c2ccc(C(=O)O)cc2)C(=O)N(C)C(=O)N(C)C1=O)c1ccc(C(=O)O)cc1 , the value recorded as its TGI is > 100 µM

Looking up CSc1nc(Br)nc2c1ncn2C1CC(Oc2ccc(C)cc2)C(COc2ccc(C)cc2)O1 (stereo not given) , I see its TGI listed as > 100 µM

Summary for this molecule, CC(=O)N[C@@H]1CCC[C@H](C(=O)Nc2cc(-c3cnn4c3CC(C)(C)C4)c(Cl)cn2)C1 : TGI is 0.719 µM

For reference, reported TGI for C[C@H](NC(=O)CCC(F)(F)F)C(=O)N[C@@H]1C(=O)N(CCO)c2ncccc2-c2ccccc21 stands at > 100 µM

Entry under test: CC(C)(C)c1ccc(S(=O)(=O)N[C@H]2CC[C@H]3[C@@H]4CCc5cc(O)ccc5[C@H]4CC[C@]23C)cc1 . Its TGI was 8.76 µM

Entry CC(C)CC1c2[nH]c3ccccc3c2C[C@H]2C(=O)NC(COC(C)(C)C)C(=O)N12 (stereo not given in full) ; TGI = 43.4 µM

Sample COC(=O)CNC(=O)/C=C/[C@H](O[Si](C)(C)C(C)(C)C)[C@H](/C=C/C(=O)NCC(=O)OC)O[Si](C)(C)C(C)(C)C ; TGI observed: > 25 µM

Reported TGI for O=c1c2cc(F)ccc2sc2c(NCCCN3CCCC3)nc3ccccc3c12 was 23.8 µM

Lab note: CCNC(=O)Oc1ccc(/C(=C(\C)c2ccc(Cl)cc2)c2ccc(OCCN3CCCCC3)cc2)cc1 gave TGI of 10.2 µM

# TGI (molecule: CN(C)CCn1c(=O)c2ccc(NCCNCCO)c3c(=O)c4cc(O)ccc4n(c1=O)c23 ) is 13.3 µM

Notebook: CCCCCCCCCCCCNC(=O)[C@H]1CSC(c2ccc(OC)c(F)c2)N1 (stereo not given in full) , TGI read as 3.66 µM

Form field TGI, entry CCOc1ccc(NC(=S)/N=C/C(C(=O)Nc2ccccc2C)=C(\C)O)cc1 : > 100 µM

Record Cc1ccc(C2=Nn3c(nc4sc(-c5ccccc5)cc4c3=O)SC2)cc1 , field TGI: > 100 µM

Entry C#Cc1cccc(Nc2ncnc3ccc(-c4cncc(NS(C)(=O)=O)c4)cc23)c1 , TGI reported as 2.77 µM

Input C=CC1(CCC(Br)C(C)(C)Cl)CO1 (stereo not given) . Output TGI: > 10 µM

GET /value?item= CN1C(=O)C23CC4=CC=CC(O)C4N2C(=O)C1(CO)SS3 (stereo not given) &field=TGI returns 0.339 µM
